system: Candida albicans; experiment: Antifungal activity against Candida albicans CPCC400616 measured at 24 hrs by CLSI protocol based microbroth dilution method; type: functional; settings: CPCC400616, 24 h
reported_endpoint: MIC90

Some solved entries appear below for comparison.
# smiles_repr, reported_endpoint, assay_value
measured = [
    ("Cc1ccc2c(c1)/C(=N/NC(=O)Nc1cc(Cl)cc(Cl)c1)CC[Se]2", "MIC90", "> 128 mg/L"),
    ("O=C(N/N=C1\\CC[Se]c2ccc(F)cc21)Nc1cc(Cl)cc(Cl)c1", "MIC90", "> 128 mg/L"),
]

## Task Any idea what MIC90 was measured for CCc1ccccc1NC(=O)N/N=C1\CC[Se]c2ccccc21 ?
## Result > 128 mg/L

Where do the numbers come from? From ChEMBL document CHEMBL4406865.
